Provenance of the data: PubChem BioAssay AID1159580

# test.description: chemical genetic growth profiling, strain panel (AID 1159580);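 further: tested at 20 µM; growth read once vehicle control cultures reached saturation at 30 °C; 1 = growth at the plate median or of vehicle wells; lower values mean less growth of the strain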
# condition.summary: S. cerevisiae deletion strains, growth OD, locus YMR307W, strain GAS1, active compounds read low
About 2,000 (36%) of roughly 5,500 compounds were called active. Roughly 18% stayed inconclusive and do not appear here. The list shows a part of the results.
readout.type: normalized growth
No unit in the answer, only the number.

Example cases with answers are listed next.
CC(=O)O[C@H]1CC[C@]2(C)C3=CC(=O)[C@@]4(C)C(C[C@@H]5OC6(OCC(C)CC6Br)[C@@H](C)[C@@H]54)C3CC[C@H]2C1 (stereo partly drawn); 0.981
COc1c2c(nc3ccccc13)OC(C(C)(O)CO)C2 (stereo not drawn); 1.01

Alright, here's another molecule for you.
Record C[C@H](N)[C@H](O)c1ccccc1 . Reported normalized growth: 0.983

----------
Readings of normalized growth for the listed compounds
# test.description: chemical genetic growth profiling, strain panel (AID 1159580);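 further: tested at 20 µM; growth read once vehicle control cultures reached saturation at 30 °C; 1 = growth at the plate median or of vehicle wells; lower values mean less growth of the strain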
# condition.summary: S. cerevisiae deletion strains, growth OD, locus YGL086W, strain mad1, active compounds read low
Hit rate of the full screen: of about 5,500 compounds, about 2,000 (36%) were called active. About 18% were inconclusive and are not listed. This is one part of the list.
Keep it simple and answer with nothing but the number.

// solved cases for normalized growth follow
C[C@@H]1CC2C3C[C@H](F)C4=CC(=O)C=C[C@]4(C)[C@@]3(F)[C@@H](O)C[C@]2(C)[C@@]1(O)C(=O)COC(=O)C(C)(C)C (some centres undefined); 0.983
Clc1ccc2c(c1)C(N1CCNCC1)=Nc1ccccc1O2; 0.986
CC(CCC(=O)O)[C@H]1CCC2C3CC[C@@H]4CCCC[C@]4(C)C3CC[C@@]21C (some centres undefined); 0.985

Recorded result, N[C@@H](Cc1cc(I)c(Oc2cc(I)c(O)c(I)c2)c(I)c1)C(=O)O , normalized growth: 1

Per the records, this compound ( NC(N)=O ) has normalized growth equal to 0.99

Entry COc1cc2c(cc1O)C(Cc1ccc(O)cc1)N(C)CC2 (centres undefined) — recorded normalized growth = 1.01

----------
# test.description: chemical genetic growth profiling, strain panel (AID 1159580);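 further: tested at 20 µM; growth read once vehicle control cultures reached saturation at 30 °C; 1 = growth at the plate median or of vehicle wells; lower values mean less growth of the strain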
# condition.summary: S. cerevisiae deletion strains, growth OD, locus YJL095W, strain BCK1, active compounds read low
Among all 5,500 compounds or so, about 2,000 (36%) were called active. Roughly 18% stayed inconclusive and do not appear here. Some of the results follow.
readout.type: normalized growth
Give only the figure.

Lookup result for NC(N)=NCCCC(NC(=O)C(N)Cc1ccc(O)cc1)C(=O)O (stereo unspecified) ; measured normalized growth: 0.988

The recorded normalized growth for O=S(=O)([O][Al])OC[C@H]1O[C@@](COS(=O)(=O)[O][Al])(O[C@H]2O[C@H](COS(=O)(=O)[O][Al])[C@@H](OS(=O)(=O)[O][Al])[C@H](OS(=O)(=O)[O][Al])[C@H]2OS(=O)(=O)[O][Al])[C@@H](OS(=O)(=O)[O][Al])[C@@H]1OS(=O)(=O)[O][Al] is 0.986

Briefly, normalized growth measured for NC(N)=NCCC[C@@H](NC(=O)[C@@H](N)Cc1ccc(O)cc1)C(=O)O : 0.996

Measured normalized growth, Cc1cccc(Nc2ccncc2S(=O)(=O)NC(=O)NC(C)C)c1 : 1.02

Given item CC(=O)O[C@H]1CC[C@]2(C)C3=CC(=O)[C@@]4(C)C(C[C@@H]5OC6(OCC(C)CC6Br)[C@@H](C)[C@@H]54)C3CC[C@H]2C1 (stereo partly specified) , the value recorded as its normalized growth is 0.994

For NC(=O)c1ncn(C2O[C@H](CO)[C@@H](O)[C@H]2O)c1N (stereo partly specified) the molecule record lists normalized growth as 1.01
